# System: HEK293 clonal cell line overexpressing APOL1 G1
# Test summary: APOL1 G1 HEK293 cell rescue assay (Example B3)
# Type: cell-based
# Test parameters: Homo sapiens, HEK293, HEK293 clonal line overexpressing APOL1 G1; geometric mean of at least 2 runs; † = single run; ¥ = concentration at 50% rescue estimated (no sigmoidal curve)
Returns: string. Value is True if measured EC50 is below 300 nM, and False if it is greater than or equal to it.

Completed entries (count: 8):
Compound	Assigned category
CC(O)c1ncc(OCCN2CCC3(CC2)C(=O)Nc2ccc(C#N)cc23)cc1C(F)(F)F (single isomer, unassigned) [Compound 376]	True
Cn1c(=O)[nH]c2cc(OCCN3CCC4(CC3)C(=O)Nc3ccc(Cl)cc34)ccc21 [Compound 88]	False
C[C@]1(O)C[C@@H](N2C(=O)OCc3cc(OCCN4CCC5(CC4)C(=O)Nc4ccc(Cl)cc45)cnc32)C1 [Compound 289]	True
O=C(c1ccc(OCCN2CCC3(CC2)C(=O)Nc2ccc(Cl)cc23)cc1F)N1CC(O)C1 [Compound 235]	True
O=C1CCc2cc(OCCN3CCC4(CC3)C(=O)Nc3ccc(Cl)cc34)cnc2N1[C@H]1C[C@@H](CO)C1 (single isomer, unassigned) [Compound 319]	True
CS(=O)(=O)C1(c2ccc(OCCN3CCC4(CC3)C(=O)N(CCO)c3ccc(Cl)cc34)cc2)COC1 [Compound 160]	True
C[C@]1(O)C[C@@H](N2C(=O)NCc3cc(OCCN4CCC5(CC4)C(=O)Nc4ccc(C#N)cc45)cc(C(F)(F)F)c32)C1 [Compound 457]	False
CNC(=O)N1Cc2ccc(OCCN3CCC4(CC3)C(=O)Nc3ccc(Cl)cc34)cc2C1 [Compound 61]	False

Inquiry: Criterion: EC50 strictly below 300 nM. Is it met by CS(=O)(=O)Nc1ccc(OCCN2CCC3(CC2)C(=O)Nc2ccc(Cl)cc23)cc1 [Compound 214] ?
Reply text: True

Inquiry: Criterion: EC50 strictly below 300 nM. Is it met by CS(=O)(=O)c1ccc(OCCN2CCC3(CC2)C(=O)Nc2ccc(Cl)cc23)cc1C1COC1 [Compound 223] ?
Reply text: False

Inquiry: Criterion: EC50 strictly below 300 nM. Is it met by CC(=O)c1ncc(OCCN2CCC3(CC2)C(=O)Nc2ccc(C(F)F)cc23)cc1C(F)(F)F [Compound 295] ?
Reply text: True
